target-of-assay: ~100 representative kinases (Homo sapiens, UniProt P45984)
Construct: Recombinant protein kinase domains with a concentration of 2 μM
Sequence (P45984 whole entry, the tested form may be a part): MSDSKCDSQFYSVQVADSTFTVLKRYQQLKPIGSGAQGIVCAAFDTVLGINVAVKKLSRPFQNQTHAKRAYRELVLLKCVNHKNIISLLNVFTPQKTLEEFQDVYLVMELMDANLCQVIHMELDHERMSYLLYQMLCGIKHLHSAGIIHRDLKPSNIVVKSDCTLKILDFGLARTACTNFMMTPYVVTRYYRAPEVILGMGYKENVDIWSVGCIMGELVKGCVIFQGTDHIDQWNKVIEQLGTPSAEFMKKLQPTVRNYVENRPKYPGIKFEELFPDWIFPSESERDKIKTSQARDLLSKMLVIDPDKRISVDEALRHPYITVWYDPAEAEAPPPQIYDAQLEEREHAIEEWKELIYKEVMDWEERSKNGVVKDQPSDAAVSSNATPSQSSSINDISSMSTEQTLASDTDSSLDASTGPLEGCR
assay-method-text: DSF 100 kinase selectivity screen;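 note: compound tested at 20 µM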
Type: binding
cond: protein MAPK9; average of three replicates
measured-parameter: dTm (K)
Report the figure in K without appending any unit label.

compound	dTm / K
Cc1ccc(-n2nc(C(C)(C)C)cc2NC(=O)Nc2cccc(-c3c[nH]c4ncnc(N5CCOCC5)c34)c2)cc1 [Compound 29]	-1.39
CC(=O)N1CCN(c2nc(Cl)nc3[nH]cc(-c4cccc(NC(=O)Nc5cc(C(C)(C)C)nn5-c5ccc(C)cc5)c4)c23)CC1 [Compound 31]	5.47
CCc1ccc(NC(=O)C2(C(=O)Nc3cccc(-c4c[nH]c5ncnc(N6CCOCC6)c45)c3)CC2)cc1 [Compound 15]	4.14

Param item: CC(C)(C)c1cccc(NC(=O)C2(C(=O)Nc3cccc(-c4c[nH]c5ncnc(N6CCOCC6)c45)c3)CC2)c1 [Compound 22] ; param system: ~100 representative kinases (Homo sapiens, UniProt P45984); output dTm: 1.21

Param item: Cc1cc(F)ccc1NC(=O)C1(C(=O)Nc2cccc(-c3c[nH]c4ncnc(N5CCOCC5)c34)c2)CC1 [Compound 24] ; param system: ~100 representative kinases (Homo sapiens, UniProt P45984); output dTm: 2.21

Param item: O=C(Nc1cccc(-c2c[nH]c3ncnc(N4CCOCC4)c23)c1)C1(C(=O)Nc2cc(Br)c(F)cc2F)CC1 [Compound 25] ; param system: ~100 representative kinases (Homo sapiens, UniProt P45984); output dTm: 4.88

Param item: COc1cc2c(Oc3ccc(NC(=O)C4(C(=O)Nc5ccc(F)cc5)CC4)cc3F)ccnc2cc1OCCCN1CCOCC1 [Foretinib, reference compound] ; param system: ~100 representative kinases (Homo sapiens, UniProt P45984); output dTm: 2.84

###

target-of-assay: ~100 representative kinases (Homo sapiens, UniProt P45983)
Construct: Recombinant protein kinase domains with a concentration of 2 μM
Sequence (P45983 whole entry, the tested form may be a part): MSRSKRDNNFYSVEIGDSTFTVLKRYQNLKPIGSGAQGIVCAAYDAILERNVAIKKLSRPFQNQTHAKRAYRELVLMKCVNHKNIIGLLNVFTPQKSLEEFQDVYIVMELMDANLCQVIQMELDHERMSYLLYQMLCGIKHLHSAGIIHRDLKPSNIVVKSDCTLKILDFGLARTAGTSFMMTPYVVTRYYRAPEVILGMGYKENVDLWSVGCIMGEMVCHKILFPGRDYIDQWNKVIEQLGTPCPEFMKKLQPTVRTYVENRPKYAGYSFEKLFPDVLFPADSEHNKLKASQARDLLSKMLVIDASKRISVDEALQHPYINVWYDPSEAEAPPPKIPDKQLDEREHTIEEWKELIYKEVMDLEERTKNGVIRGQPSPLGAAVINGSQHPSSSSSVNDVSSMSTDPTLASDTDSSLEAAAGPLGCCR
assay-method-text: DSF 100 kinase selectivity screen;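 note: compound tested at 20 µM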
Type: binding
cond: protein MAPK8; average of three replicates
Would you please tag the item satisfied when its dTm is 2 K or above, and not satisfied when it is below?

Hi team, for O=C(Nc1cccc(-c2c[nH]c3ncnc(N4CCOCC4)c23)c1)C1(C(=O)Nc2ccc(F)c(Br)c2)CC1 , is the recorded dTm at or above 2 K?
satisfied

Hi team, for O=C(Nc1cccc(-c2c[nH]c3ncnc(N4CCOCC4)c23)c1)C1(C(=O)Nc2ccc(F)c(Cl)c2)CC1 , is the recorded dTm at or above 2 K?
satisfied

Hi team, for O=C(Nc1cccc(-c2c[nH]c3ncnc(N4CCOCC4)c23)c1)C1(C(=O)Nc2cccc3c2CCC3)CC1 , is the recorded dTm at or above 2 K?
satisfied

Hi team, for CCNc1nc(Nc2cc(F)c(C(=O)N3CCOCC3)cc2OC)ncc1C(F)(F)F , is the recorded dTm at or above 2 K?
not satisfied

Hi team, for Cc1cc(NC(=O)C2(C(=O)Nc3cccc(-c4c[nH]c5ncnc(N6CCOCC6)c45)c3)CC2)ccc1F , is the recorded dTm at or above 2 K?
satisfied

###

dTm values by entry
target-of-assay: ~100 representative kinases (Homo sapiens)
Construct: Recombinant protein kinase domains with a concentration of 2 μM
assay-method-text: DSF 100 kinase selectivity screen;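 note: compound tested at 20 µM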
Format: binding
cond: Protein CSNK1E; average of three replicates
Report the figure in K without appending any unit label.

Check out these entries, answers already filled in.
chemical-structure	unit	dTm
O=C(Nc1cccc(-c2c[nH]c3ncnc(N4CCOCC4)c23)c1)C1(C(=O)Nc2cc(Br)c(F)cc2F)CC1	K	2.14
O=C(Nc1cccc(-c2c[nH]c3ncnc(N4CCOCC4)c23)c1)C1(C(=O)Nc2ccc(F)c(Br)c2F)CC1	K	4.57
COc1cc(NC(=O)C2(C(=O)Nc3cccc(-c4c[nH]c5ncnc(N6CCOCC6)c45)c3)CC2)ccc1F	K	5.78

Param item: CCc1ccc(NC(=O)C2(C(=O)Nc3cccc(-c4c[nH]c5ncnc(N6CCOCC6)c45)c3)CC2)cc1 ; param system: ~100 representative kinases (Homo sapiens); output dTm: 2.91

Param item: O=C(Nc1cccc(-c2c[nH]c3ncnc(N4CCOCC4)c23)c1)C1(C(=O)Nc2ccc(F)c(Cl)c2)CC1 ; param system: ~100 representative kinases (Homo sapiens); output dTm: 5.76

Param item: O=C(Nc1cccc(-c2c[nH]c3ncnc(N4CCOCC4)c23)c1)C1(C(=O)Nc2ccc(F)cc2F)CC1 ; param system: ~100 representative kinases (Homo sapiens); output dTm: 3.09

Param item: CC(C)(C)c1cccc(NC(=O)C2(C(=O)Nc3cccc(-c4c[nH]c5ncnc(N6CCOCC6)c45)c3)CC2)c1 ; param system: ~100 representative kinases (Homo sapiens); output dTm: 6.66
